system: human ovarian cancer cell line A2780; experiment: Growth inhibition assay (CellTiter 96 Non-Rad Cell Proliferation Assay); type: cell-based; conditions: Homo sapiens, A2780, 72 h, Table 1; maximal % growth inhibition, A2780, 72 h; read-out: Efficacy
PARAMETER: Emax (%)
Report the value in % with no unit label.

### Prompt Give Emax for CCC1(CC)CC(C)(C)c2cc(NC(=S)Nc3ccc([N+](=O)[O-])cc3)ccc2O1 [Compound 6a] tested on human ovarian cancer cell line A2780.
### Response 93.9

### Prompt Give Emax for CC1(C)CC(C)(C)c2cc(NC(=O)Nc3ccc(OC(F)(F)F)cc3)ccc2O1 [Compound 3c] tested on human ovarian cancer cell line A2780.
### Response 88.4

### Prompt Give Emax for CCC1(CC)CC(C)(C)Oc2ccc(NC(=O)Nc3ccc([N+](=O)[O-])cc3)cc21 [Compound 7c] tested on human ovarian cancer cell line A2780.
### Response 93.6

### Prompt Give Emax for CCC1(CC)CC(C)(C)c2cc(NC(=O)Nc3ccc(C(F)(F)F)cc3)ccc2O1 [Compound 6c] tested on human ovarian cancer cell line A2780.
### Response 92.4

### Prompt Give Emax for CCC1(CC)CC(CC)(CC)c2cc(NC(=O)Nc3ccc(OC(F)(F)F)cc3)ccc2O1 [Compound 8d] tested on human ovarian cancer cell line A2780.
### Response 67

### Prompt Give Emax for CC1(C)CCOc2ccc(NC(=S)Nc3ccc(OC(F)(F)F)cc3)cc21 [Compound 4c] tested on human ovarian cancer cell line A2780.
### Response 16

### Prompt Give Emax for CCC1(CC)CC(CC)(CC)c2cc(NC(=O)Nc3ccc([N+](=O)[O-])cc3)ccc2O1 [Compound 8b] tested on human ovarian cancer cell line A2780.
### Response 91.4

### Prompt Give Emax for CC1(C)CCOc2ccc(NC(=O)Nc3ccc(OC(F)(F)F)cc3)cc21 [Compound 5c] tested on human ovarian cancer cell line A2780.
### Response 36

### Prompt Give Emax for CCOC(=O)c1ccc(NC(=S)Nc2ccc3c(c2)C(C)(C)CC(C)(C)O3)cc1 [Compound 2b] tested on human ovarian cancer cell line A2780.
### Response 26

### Prompt Give Emax for CC1(C)CC(C)(C)c2cc(NC(=S)Nc3ccc([N+](=O)[O-])cc3)ccc2O1 [Compound 2a] tested on human ovarian cancer cell line A2780.
### Response 87

### Prompt Give Emax for CC1(C)CC(C)(C)c2cc(NC(=S)Nc3ccc([N+](=O)[O-])cc3)ccc2S1 [SHetA2, reference compound] tested on human ovarian cancer cell line A2780.
### Response 84.3

### Prompt Give Emax for CCC1(CC)CC(C)(C)Oc2ccc(NC(=S)Nc3ccc([N+](=O)[O-])cc3)cc21 [Compound 7a] tested on human ovarian cancer cell line A2780.
### Response 95.7

### Prompt Give Emax for CCC1(CC)CC(CC)(CC)c2cc(NC(=S)Nc3ccc([N+](=O)[O-])cc3)ccc2O1 [Compound 8a] tested on human ovarian cancer cell line A2780.
### Response 94

### Prompt Give Emax for CC1(C)CC(C)(C)c2cc(NC(=O)Nc3ccc(C(F)(F)F)cc3)ccc2O1 [Compound 3a] tested on human ovarian cancer cell line A2780.
### Response 79

### Prompt Give Emax for CCC1(CC)CC(C)(C)c2cc(NC(=O)Nc3ccc([N+](=O)[O-])cc3)ccc2O1 [Compound 6b] tested on human ovarian cancer cell line A2780.
### Response 93.3

### Prompt Give Emax for CC1(C)CCOc2ccc(NC(=S)Nc3ccc([N+](=O)[O-])cc3)cc21 [Compound 4a] tested on human ovarian cancer cell line A2780.
### Response 19

### Prompt Give Emax for CC1(C)CC(C)(C)c2cc(NC(=S)Nc3ccc(C(F)(F)F)cc3)ccc2O1 [Compound 2c] tested on human ovarian cancer cell line A2780.
### Response 22

### Prompt Give Emax for CC1(C)CCOc2ccc(NC(=S)Nc3ccc(C(F)(F)F)cc3)cc21 [Compound 4b] tested on human ovarian cancer cell line A2780.
### Response 28
